Kindly supply the reported Binding Signal (fold over 6E7 Parental antibody) values for the records listed here.
system-under-test: T1, human TREM2 (human, UniProt Q9NZC2 19-174, limits assumed)
T1 construct: also called triggering receptor expressed on myeloid cells 2
T1 sequence: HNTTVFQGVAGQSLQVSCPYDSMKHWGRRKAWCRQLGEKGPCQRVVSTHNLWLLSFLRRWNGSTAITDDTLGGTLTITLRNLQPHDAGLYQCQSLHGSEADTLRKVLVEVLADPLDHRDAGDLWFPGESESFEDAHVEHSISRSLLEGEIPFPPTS
experimental-details: 2nd screen 100 nM
Lab book: enter the figure in fold, no units written.

Data request: State its Binding Signal (fold over 6E7 Parental antibody): V21 (antibody, V domains shown) VH: EVQLVQSGAEVKKPGESLKISCKGSGYSFTSYWIAWVRQMPGKGLEWMGIIYPGDSDTRYSPSFQGQVTISADKSISTAYLQWSSLKASDTAMYFCARQRTFYYDSSDFFDYWGQGTLVTVSS VL: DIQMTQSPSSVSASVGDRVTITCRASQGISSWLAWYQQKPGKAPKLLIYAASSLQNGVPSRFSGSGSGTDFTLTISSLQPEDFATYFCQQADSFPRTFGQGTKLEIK
Data returned: 0.68

Data request: Tell me measured Binding Signal (fold over 6E7 Parental antibody) for V6 (antibody, V domains shown) VH: EVQLVQSGAEVKKPGESLKISCKGSGYSFTSMWIAWVRQMPGKGLEWMGIIYPGDSDTRYSPSFQGQVTISADKSISTAYLQWSSLKASDTAMYFCARQRTFYYDSSDYFDYWGQGTLVTVSS VL: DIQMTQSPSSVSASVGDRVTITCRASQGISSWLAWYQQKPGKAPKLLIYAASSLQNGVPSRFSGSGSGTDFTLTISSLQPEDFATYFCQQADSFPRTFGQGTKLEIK please.
Data returned: 0.56
